Biological target: EP4 (Homo sapiens (Human))
Assay: Radioligand EP4 receptor binding assay
Settings: Chem-1 cell membranes overexpressing human EP4, [3H]-PGE2 displacement
Protocol: The radioligand EP4 binding assay was performed using ChemiScreen recombinant human EP4 receptor membrane preparations from Millipore, according to manufacturer's instructions. […] The plate was dried and radioactivity counted.
molecules and their reported pKi
In textbook form, pKi equals minus log to base ten of the concentration in mol/L.

Kindly state the measured pKi obtained for Cn1nc(C(F)(F)F)c(C(=O)NC2(c3ccc(C(=O)O)cc3)CC2)c1Oc1cccc(C(F)(F)F)c1 [ER-885741-00] with EP4 (Homo sapiens (Human)).
7.80

Cool, now Cn1nc(C(F)F)c(C(=O)NC2(c3ccc(C(=O)O)cc3)CC2)c1Oc1cccc(C(F)(F)F)c1 [ER-886078-00]
8.10

====

Target: UniProtKB P35408
Assay: CRE-PLAP reporter assay
Settings: SE302 (HEK/293 clone) cells with endogenous EP4, stimulated with 3 ng/mL PGE2 overnight
Description: Cells were maintained in DMEM/F12 (50:50) (MediaTech) supplemented with 10% FBS (Tissue Culture Biologicals) plus penicillin/streptomycin. When used for assays, cells were plated in a 96-well plate at 2×10^4 cells/100 μL/well in serum-free assay medium (DMEM/F12 supplemented with 0.1% BSA plus penicillin/streptomycin) and incubated for 4-6 h. Exemplary compounds of the present invention were assayed according to the methods set forth above in the CRE-PLAP reporter assay described above.
Decide using IC50 alone. Strictly below 200 nM: Criterion met. Equal to or above 200 nM: Criterion not met.

A record lists C[C@H](NC(=O)c1c(C(F)F)nn(C)c1Oc1cccc(Cl)c1)c1ccc(C(=O)O)cc1 . Is its IC50 below 200 nM?
Criterion met

Try Cc1nn(C)c(Oc2cccc(F)c2F)c1C(=O)N[C@@H](C)c1ccc(C(=O)O)cc1 next.
Criterion not met

Please do the same for Cn1nc(C(F)(F)F)c(C(=O)NC2(c3ccc(C(=O)O)cc3)CC2)c1Oc1ccc(Cl)cc1 as well.
Criterion met

Okay, and Cn1nc(C(F)F)c(C(=O)NC2(c3ccc(C(=O)O)cc3)CC2)c1Oc1cccc(Cl)c1 ?
Criterion met

And C[C@H](NC(=O)c1c(C(F)F)nn(C)c1Oc1ccc(C(F)(F)F)cc1)c1ccc(C(=O)O)cc1 ?
Criterion met

Try this compound next: C[C@H](NC(=O)c1c(C(F)(F)F)nn(C)c1Oc1cccc(C(F)(F)F)c1)c1ccc(C(=O)O)cc1
Criterion met

====

Molecular target: EP4 (Homo sapiens (Human), UniProt P35408)
Sequence (P35408 whole entry): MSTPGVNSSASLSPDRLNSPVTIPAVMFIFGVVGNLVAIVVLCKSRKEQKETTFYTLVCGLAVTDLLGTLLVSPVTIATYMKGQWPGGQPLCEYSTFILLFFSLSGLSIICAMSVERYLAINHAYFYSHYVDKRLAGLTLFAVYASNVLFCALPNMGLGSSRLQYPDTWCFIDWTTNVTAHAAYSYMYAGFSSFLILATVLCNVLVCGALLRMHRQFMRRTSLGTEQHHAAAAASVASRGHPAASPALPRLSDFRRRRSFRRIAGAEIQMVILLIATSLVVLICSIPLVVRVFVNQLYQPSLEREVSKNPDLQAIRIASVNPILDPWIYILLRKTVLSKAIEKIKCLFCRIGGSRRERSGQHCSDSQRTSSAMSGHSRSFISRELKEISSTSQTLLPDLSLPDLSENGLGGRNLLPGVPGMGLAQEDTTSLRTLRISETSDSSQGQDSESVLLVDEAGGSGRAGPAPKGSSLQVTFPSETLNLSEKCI
Test: CRE-PLAP reporter assay
Details: SE302 (HEK/293 clone) cells with endogenous EP4, stimulated with 3 ng/mL PGE2 overnight
Method: Cells were maintained in DMEM/F12 (50:50) (MediaTech) supplemented with 10% FBS (Tissue Culture Biologicals) plus penicillin/streptomycin. When used for assays, cells were plated in a 96-well plate at 2×10^4 cells/100 μL/well in serum-free assay medium (DMEM/F12 supplemented with 0.1% BSA plus penicillin/streptomycin) and incubated for 4-6 h. Exemplary compounds of the present invention were assayed according to the methods set forth above in the CRE-PLAP reporter assay described above.
measurement kind: IC50 (nM)
Report the figure in nM without appending any unit label.

A selection of reference data follows.
[
  {
    "compound": "Cn1nc(C(F)(F)F)c(C(=O)NC2(c3ccc(C(=O)O)cc3)CC2)c1Oc1ccc(C(F)(F)F)cc1 [ER-888364-00]",
    "target or test system": "EP4 (Homo sapiens (Human), UniProt P35408)",
    "IC50 / nM": 12
  },
  {
    "compound": "C[C@H](NC(=O)c1c(C(F)(F)F)nn(C)c1Oc1cccc(C(F)F)c1)c1ccc(C(=O)O)cc1 [ER-887995-00]",
    "target or test system": "EP4 (Homo sapiens (Human), UniProt P35408)",
    "IC50 / nM": 187
  },
  {
    "compound": "Cc1nn(C)c(Oc2cccc(Cl)c2Cl)c1C(=O)N[C@@H](C)c1ccc(C(=O)O)cc1 [ER-886022-00]",
    "target or test system": "EP4 (Homo sapiens (Human), UniProt P35408)",
    "IC50 / nM": 719
  }
]

Endpoint output: IC50 of C[C@H](NC(=O)c1c(C(F)F)nn(C)c1Oc1ccc(Cl)cc1)c1ccc(C(=O)O)cc1 [ER-888371-00] . Value?
89

Try the compound Cc1nn(C)c(Oc2ccc(C(F)(F)F)cc2)c1C(=O)N[C@@H](C)c1ccc(C(=O)O)cc1 [ER-885311-00]
273

One more compound: Cc1nn(C)c(Oc2cccc(C(F)F)c2)c1C(=O)N[C@@H](C)c1ccc(C(=O)O)cc1 [ER-887495-00]
219

Please answer likewise for Cn1nc(C(F)F)c(C(=O)NC2(c3ccc(C(=O)O)cc3)CC2)c1Oc1cccc(C(F)(F)F)c1 [ER-886078-00]
9
